The measured values listed here are drawn from patent US5872148A.

Biological target: cannabinoid receptor (Rattus norvegicus, UniProt P20272)
Construct: membrane preparations from rat forebrains; from tissue; host or cells: rat forebrain membranes
Sequence (P20272 whole entry): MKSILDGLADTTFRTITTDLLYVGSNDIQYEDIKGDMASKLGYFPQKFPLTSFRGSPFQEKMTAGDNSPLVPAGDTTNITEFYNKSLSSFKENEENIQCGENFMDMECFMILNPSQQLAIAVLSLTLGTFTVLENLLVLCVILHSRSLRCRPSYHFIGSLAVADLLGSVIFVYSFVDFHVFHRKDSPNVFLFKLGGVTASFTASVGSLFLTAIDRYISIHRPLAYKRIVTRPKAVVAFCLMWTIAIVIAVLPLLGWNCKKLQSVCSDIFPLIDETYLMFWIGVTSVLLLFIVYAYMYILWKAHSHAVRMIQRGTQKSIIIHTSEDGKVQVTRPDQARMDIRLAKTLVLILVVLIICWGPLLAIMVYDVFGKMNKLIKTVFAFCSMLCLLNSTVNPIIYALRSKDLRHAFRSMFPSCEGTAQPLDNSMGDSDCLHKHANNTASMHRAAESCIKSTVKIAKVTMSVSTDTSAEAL
Assay: Alternate affinity test, [^3 H]CP-55,940, rat forebrain membrane, potassium diethyl malonate buffer with β-cyclodextrin
Type: binding
Conditions: 100 fmol/mL [^3 H]CP-55,940, 0.01% β-cyclodextrin, pH 7.4, 1 hour at 30° C.
MEASURED ATTRIBUTE: IC50

Query the reported IC50 for cannabinoid receptor (Rattus norvegicus, UniProt P20272); item: CC1=CC[C@@H]2[C@@H](C1)c1c(O)cc(CCCCCN=[N+]=[N-])cc1OC2(C)C [(-)5'-azido-Δ^8 -THC]
31 nM

* * *

Target: cannabinoid receptor (Rattus norvegicus, UniProt P20272)
Construct: membrane preparations from rat forebrains; from tissue; host or cells: rat forebrain membranes
Test: Receptor binding assay, [^3 H]CP-55,940, rat forebrain membrane, Tris buffer with bovine serum albumin
Settings: rat forebrain membrane, 0.8 nM [^3 H]CP-55,940, 0.1% bovine serum albumin, pH 7.4, 1 hour at 30° C.
Protocol: The affinity of compositions of this invention for cannabinoid binding sites was tested by using membrane preparations from rat forebrains. […] Ligand binding was counted on a Beckman liquid scintillation counter. Non-specific binding was assessed from tubes containing 250 nM desacetyllevo-nantradol by the method described in W. A. Devane et al., Determination and Characterization of a Cannabinoid Receptor in Rat Brain, Mol. Pharmacol., 34:605 (1988). […]
The reader will find reported pIC50 values listed item by item below.
Units for pIC50: none; it is -log10 of a concentration expressed in mol/L.

- SMILES CODE: "CC(C)(CCCCCCN=[N+]=[N-])c1cc(O)c2c(c1)OC(C)(C)[C@@H]1CC=C(CO)C[C@@H]21"
  pIC50: 8.60

Fill blank: measured pIC50 of the molecule `CC(C)(CCCCCCN=C=S)c1cc(O)c2c(c1)OC(C)(C)[C@@H]1CC=C(CO)C[C@@H]21` is ____.
8.82
